Data origin: PubChem BioAssay (NCI)

System: KM12 colon
test: NCI tumour cell line growth inhibition, 48 h
measurement-name: TGI

Worked cases, TGI given:
[[record]]
compound = "CCOC(=O)C1=NN(c2ccccc2)C2=CC(C)=NN(C)C(=S)N21"
measurement_name = "TGI"
value_observed = "> 100 µM"

[[record]]
compound = "O=c1n(CCCCn2c(=O)n(CC3CS3)c3ccccc32)c2ccccc2n1CC1CS1 (stereo not drawn)"
measurement_name = "TGI"
value_observed = "24.2 µM"

[[record]]
compound = "Cc1ccc(N2C(=O)/C(=C/c3ccc(N(CCC#N)CCC#N)cc3C)N=C2c2cc([N+](=O)[O-])ccc2Cl)cc1"
measurement_name = "TGI"
value_observed = "> 100 µM"

[[record]]
compound = "O=C(/C=C/c1ccc(C(F)(F)F)cc1)c1ccc(Nc2nc(NCCO)nc(N3CCOCC3)n2)cc1"
measurement_name = "TGI"
value_observed = "3.3 µM"

[[record]]
compound = "CCOC1C=CCCO1 (stereo not drawn)"
measurement_name = "TGI"
value_observed = "> 100 µM"

[[record]]
compound = "CCOC(=O)NC(=O)c1cn(CCN2CCN(C(=O)NCCCCCCNC(=O)N3CCN(CCn4cc(C(=O)NC(=O)OCC)c(=O)n(CCN(CC)CC)c4=O)CC3)CC2)c(=O)n(CCC(CC)CC)c1=O"
measurement_name = "TGI"
value_observed = "> 100 µM"

[[record]]
compound = "CCCN(CCC)C(=O)[C@H](CC)[C@@H]1CC[C@@H](C)[C@@H]([C@H](C)[C@@H](O)[C@@H](C)C(=O)[C@H](CC)C2O[C@]3(C=C[C@@H](O)[C@]4(CC[C@@](C)([C@H]5CC[C@](O)(CC)[C@H](C)O5)O4)O3)[C@H](C)C[C@@H]2C)O1 (stereo partly drawn)"
measurement_name = "TGI"
value_observed = "4.02 µM"

[[record]]
compound = "O=C1C[C@H]2CC3(CC[C@H]2CN1)OCCO3"
measurement_name = "TGI"
value_observed = "> 100 µM"

[[record]]
compound = "COc1ccc(NS(=O)c2ccc(OC)cc2)cc1 (stereo not drawn)"
measurement_name = "TGI"
value_observed = "24.1 µM"

[[record]]
compound = "C/C=C/C=C\\C1OC(O)([C@H](CC)C(=O)NC/C=C/C=C(\\C)[C@H](OC)C(C)C2OC(\\C=C/C=C/C=C(\\C)C(=O)c3c(O)ccn(C)c3=O)[C@H](O)[C@@H]2O)C(O)C(O)C1(C)C (stereo partly drawn)"
measurement_name = "TGI"
value_observed = "> 100 µM"


[ask] Quick check: TGI of `O=S1c2ccccc2SCSc2ccccc21` ?
[reply] > 100 µM

[ask] Reported TGI for `Cc1cc(N)ccc1C=O` : what is it?
[reply] > 100 µM

[ask] Data request, read-out TGI, for `COC(=O)[C@@]1(O)C[C@H]2O[C@]1(C)n1c3ccccc3c3c4c(c5c6ccccc6n2c5c31)C(=O)NC4`
[reply] 1.07 µM

---

Test system: HOP-92 NSCLC
test: NCI tumour cell line growth inhibition, 48 h
# maps each entry to its TGI

Past entries and their recorded results:
[[record]]
compound = "CC1CC(C)(O)CC(C(O)CC2CC(=O)NC(=O)C2)C1=O (stereo not given)"
measurement_name = "TGI"
value_observed = "0.625 µM"

[[record]]
compound = "CC1=NN(C(=O)c2ccccc2O)C(c2ccccc2Cl)C1C(=O)Nc1ccccc1 (stereo not given)"
measurement_name = "TGI"
value_observed = "> 100 µM"

[[record]]
compound = "COc1ccc(CCc2ccccc2CC(=O)O)cc1"
measurement_name = "TGI"
value_observed = "> 100 µM"

[[record]]
compound = "CC(C)c1nc2c(Cl)c3ncccc3cc2[nH]c1=O"
measurement_name = "TGI"
value_observed = "> 100 µM"

[[record]]
compound = "Nc1nc(Cl)cc(NCCCCCCCCCCCCNc2cc(Cl)nc(N)n2)n1"
measurement_name = "TGI"
value_observed = "19.3 µM"

[[record]]
compound = "O=C(n1c(=O)n(-c2ccc(Cl)cc2)c(=O)n1C(=O)C(Cl)(Cl)Cl)C(Cl)(Cl)Cl"
measurement_name = "TGI"
value_observed = "> 100 µM"

[[record]]
compound = "O=C1CCCC1NC(=O)C(F)(F)F (stereo not given)"
measurement_name = "TGI"
value_observed = "> 100 µM"

[[record]]
compound = "CC12CC3CC(C1)CC(N=[N+]=[N-])(C3)C2"
measurement_name = "TGI"
value_observed = "> 100 µM"


[ask] Quick one: TGI for C=C(C)[C@H](O)C(O)CC(C)[C@@H]1CCC23CC12CCC1[C@@]2(C)CCC(OC(C)=O)C(C)(C)C2CC(OC2OC(COC(C)=O)C(O)C(O)C2O)[C@]13C (stereo not given in full) ?
[reply] 11 µM

[ask] Data request, read-out TGI, for O=C(CN1CCOCC1)Nc1ccc2c(c1)C1Oc3ccccc3CC1CO2 (stereo not given)
[reply] > 100 µM

---

System: K-562 leukemia
test: NCI tumour cell line growth inhibition, 48 h; in the data active = GI50 below about 0.43 µM; inactive = the rest
API: response.call in Yes (active), No (inactive)

[[record]]
molecule = "COCCNC(=O)c1ccc(-c2nc3ccc4[nH]ncc4c3c3c2CCCC3)cc1"
tgt = "K-562 leukemia"
assigned_class = "No"

[[record]]
molecule = "O=C(CCCCCCC(=O)Nc1ccc2c(c1)/C(=C/c1ccc[nH]1)C(=O)N2)NO"
tgt = "K-562 leukemia"
assigned_class = "Yes"

[[record]]
molecule = "OC(CNc1ccnc2cc(Cl)ccc12)CNC1CCCCC1 (configuration not stated)"
tgt = "K-562 leukemia"
assigned_class = "No"

[[record]]
molecule = "COC(=O)[C@@]1(O)C[C@H]2O[C@]1(C)n1c3ccccc3c3c4c(c5c6ccccc6n2c5c31)C(=O)NC4"
tgt = "K-562 leukemia"
assigned_class = "Yes"

[[record]]
molecule = "OC(CNC1CCCC1)Cn1c2ccccc2c2ccccc21 (configuration not stated)"
tgt = "K-562 leukemia"
assigned_class = "No"

[[record]]
molecule = "C=C1CC[C@@H]2[C@](C)(COC(C)=O)[C@H](OC(C)=O)CC[C@@]2(C)[C@@H]1C/C=C1/C(=O)OC[C@H]1OC(C)=O"
tgt = "K-562 leukemia"
assigned_class = "No"

[[record]]
molecule = "C=CC(=O)Nc1cccc(C)c1Nc1ncc2cc(-c3c(Cl)c(OC)cc(OC)c3Cl)ccc2n1"
tgt = "K-562 leukemia"
assigned_class = "No"

[[record]]
molecule = "Clc1ccc2c(c1)-c1ccccc1C1=NCCN12"
tgt = "K-562 leukemia"
assigned_class = "No"

[[record]]
molecule = "N=C(N)c1ccc(-c2ccc(-c3cccs3)s2)nc1"
tgt = "K-562 leukemia"
assigned_class = "No"

[[record]]
molecule = "CC(C)C[C@@H]1NC(=O)[C@@H]2CCCN2C(=O)[C@@H]2CCCN2C(=O)[C@H](CC(C)C)NC(=O)[C@H](CO)NC(=O)[C@H](CCCCN)NC(=O)[C@H]([C@H](C)O)NC(=O)[C@@H]2CCCC[C@@H](NC1=O)C(=O)N[C@@H](Cc1ccccc1)C(=O)N1CCC[C@H]1C(=O)N[C@@H](CC(=O)O)C(=O)NCC(=O)N[C@@H](CCCN=C(N)N)C(=O)N2"
tgt = "K-562 leukemia"
assigned_class = "No"


[ask] Please indicate how the test categorized `O=C(/C=C/c1ccc(C(F)(F)F)cc1)c1ccc(Nc2nc(NCCO)nc(N3CCOCC3)n2)cc1` .
[reply] No

[ask] Tell me the recorded outcome of this test for `COC(=O)c1cc2oc(/C=C3\SC(=S)N(NC(C)=O)C3=O)cc2n1Cc1ccccc1` .
[reply] No

---

Tested on: SNB-78 CNS
test: NCI tumour cell line growth inhibition, 48 h
measurement-name: TGI

// worked examples, TGI included
[[record]]
compound = "C/C(=N\\NC(=S)NNC(=S)N(C)c1ccccc1)c1ccccn1"
value_observed = "> 100 µM"

[[record]]
compound = "CC(C)(c1ccc(OC#N)cc1)c1ccc(OC#N)cc1"
value_observed = "> 100 µM"


[ask] Returns the measured TGI for the input compound. Input: C=C(C)[C@H](O)C(O)CC(C)[C@@H]1CCC23CC12CCC1[C@@]2(C)CCC(OC(C)=O)C(C)(C)C2CC(OC2OC(COC(C)=O)C(O)C(O)C2O)[C@]13C (stereo partly drawn)
[reply] 14.2 µM

[ask] Entry `c1ccc2c3c([nH]c2c1)C1(CCCCC1)c1c([nH]c2ccccc12)C31CCCCC1` : reported TGI = ?
[reply] 45.4 µM

---

# key: entry, value: TGI
Tested on: SNB-19 CNS
test: NCI tumour cell line growth inhibition, 48 h
Where a SMILES comes first, the peptide text is derived from it. The star is where a group is joined. Cbz = O=C(OCc1ccccc1)*

Worked examples, 5 compounds total:
[[record]]
compound = "COc1cc(/C=C2/C(=O)NC(Cc3cc(OC)c(OC)c(C)c3OC)C(=O)N2Cc2ccccc2)c(OC)c(C)c1OC (stereo unspecified)"
value_observed = "> 100 µM"

[[record]]
compound = "COC(=O)c1cc2oc(/C=C3\\SC(=S)N(NC(C)=O)C3=O)cc2n1Cc1ccccc1"
value_observed = "21.2 µM"

[[record]]
compound = "C[C@@H]1C[C@@]2(O[C@@H]2C)C(=O)O[C@@H]2CCN3CC=C(COC(=O)[C@]1(C)O)[C@H]23"
value_observed = "> 100 µM"

[[record]]
compound = "OC(C/C(=N\\N=C(/CC(O)(C(F)(F)F)C(F)(F)F)c1ccccc1)c1ccccc1)(C(F)(F)F)C(F)(F)F"
value_observed = "> 10 µM"

[[record]]
compound = "COc1ccc2nc3ccc(OC)cc3c(SCC3CO3)c2c1 (stereo unspecified)"
value_observed = "80.4 µM"


[ask] TGI for `CN(C)CCNC(=O)c1cc2c3ccccc3[nH]c2c2ncccc12` ?
[reply] 93.2 µM

[ask] # TGI lookup, item `O=C(/C=C1/NC(=O)CS1)Nc1ccccc1`
[reply] > 100 µM

[ask] Consider the compound CCOC(=O)C(CC(=O)OC)NC(=O)C(CC(=O)OC)NC(=O)C(CC(=O)OC)NC(=O)C(CC(=O)OC)NC(=O)OCc1ccccc1 (stereo unspecified) (Cbz-D(OMe)D(OMe)D(OMe)D(OMe)-OEt; configuration not given here) and give its measured TGI.
[reply] > 100 µM

[ask] Would you kindly share the measured TGI for CC(C)(C)N(Cc1ccoc1)C(=O)/C=C\S(=O)c1ccccc1 (stereo unspecified) ?
[reply] 88.8 µM

[ask] Query: TGI; subject: Cc1nn(-c2nc3ccccc3[nH]2)c2c1C(c1ccc3c(c1)OCO3)CC(=O)N2 (stereo unspecified)
[reply] > 100 µM
